The entries below come with measured fold over background (A450) values attached.
- assaySystem: mouse TREM2 truncated stalk peptide (aa 149-163) (mouse) (UniProt Q99NH8)
- experimentalProtocol: ELISA on biotinylated peptide captured by streptavidin; A450 normalised to isotype control
attributeMeasured: fold over background (A450) (fold)

{"binder": "CL0020205 (antibody, V domains shown) VH: EVQLQQSGPVLVKPGASVKMSCKASGYTFTDYYVHWVKQSHGKSLEWIGLINPYTGTTSYNQRFRVKATLTVDKSSSTAYMEVNSLTSEDSAVYYCARSRVYYGSSLFAFWGQGTLVTVSA VL: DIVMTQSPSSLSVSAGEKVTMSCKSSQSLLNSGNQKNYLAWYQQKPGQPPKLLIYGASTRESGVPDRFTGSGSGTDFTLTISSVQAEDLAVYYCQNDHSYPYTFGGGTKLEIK", "reported": 1.1}
{"binder": "CL0020141 (antibody, V domains shown) VH: EVTLVESGGGLVQPGGSLRLSCATSGFTFTDYYMSWVRQPPGKALEWLGFIRDKANGYTTDYSASVKGRFTISRDNSQNILYLQMNTLRAEDSATYYCSRLLRAQGFAYWGQGTLVTVSA VL: DIVMSQSPSSLGVSIGEKVIMSCTSGQSLLYSNNQKNYLAWYQQKPGQSPKLLIYWASTRESGVPDRFTGSGSGTDFTLTINSVKAEDLAVYYCQQYYRNPFTFGSGTKLEIK", "reported": 1.4}
{"binder": "CL0020127 (antibody, V domains shown) VH: EVQLQQSGPVLVKPGASVKMSCKASGYKFTDYYMNWVKQSHGKSLEWIGTINPYSGGISYNQKFKGKATLTVDKSSSTAYMELNSLTSEASAVYYCTRRNWDGRYAMDYWGQGTSVTVSS VL: DIVMTQSHKFMSTSVGDRVSITCKASQDVSTAVAWYQQKPGQSPKLLIYWASTRHTGVPDRFTGSGSGTDFTLTISNVQSEDLAEYFCQQYSSYPFTFGGGTKLEIK", "reported": 1.2}
{"binder": "CL0020215 (antibody, V domains shown) VH: QVQLQQPGAELVKPGASVKMSCKASGYTFTNYWIMWVKQRPGQGLEWIGDIYPSSGSTNYNEKFKNRATLTVDTSSNTAYMQLSSLTSEDSAVYFCSREGYGISAWGQGTTLTVSS VL: QIVLTQSPAIMSASPGEKVTITCSASSSVSYMHWFQQKPGTSPKLWIYSTSNLASGVPARFSGSGSGTSCSLTISRMEAEDAATYYCQQRSSFPLTFGAGTKLELK", "reported": 1.2}
{"binder": "CL0020313 (antibody, V domains shown) VH: QVQLKQSGPGLLQPSQSLSITCTVSGFSLTSYGVHWVRQSPGKGLEWLGVIWSGGITLYNAAFMSRLSITKDNSKSQVFFKMNSLQADDTAIYYCAKVGYGSSSDYWGQGTTLTVSS VL: DVLMTQSPLSLPVSLGDQASFSCRSSQSIVHSNGNTYLEWYLQKPGQSPKLLIYKVSNRFSGVPDRFSGSGSGTDFTLKISRVEAEDLGVYYCFQGSHVPFTFGSGTKLEIK", "reported": 1.1}

The values you see were collected from patent US20220119522A1.
